The following sequences are shown together with reported PBM E-score values.
# TARGET OR TEST SYSTEM: Yer184c (UniProt P39961)
# Sequence: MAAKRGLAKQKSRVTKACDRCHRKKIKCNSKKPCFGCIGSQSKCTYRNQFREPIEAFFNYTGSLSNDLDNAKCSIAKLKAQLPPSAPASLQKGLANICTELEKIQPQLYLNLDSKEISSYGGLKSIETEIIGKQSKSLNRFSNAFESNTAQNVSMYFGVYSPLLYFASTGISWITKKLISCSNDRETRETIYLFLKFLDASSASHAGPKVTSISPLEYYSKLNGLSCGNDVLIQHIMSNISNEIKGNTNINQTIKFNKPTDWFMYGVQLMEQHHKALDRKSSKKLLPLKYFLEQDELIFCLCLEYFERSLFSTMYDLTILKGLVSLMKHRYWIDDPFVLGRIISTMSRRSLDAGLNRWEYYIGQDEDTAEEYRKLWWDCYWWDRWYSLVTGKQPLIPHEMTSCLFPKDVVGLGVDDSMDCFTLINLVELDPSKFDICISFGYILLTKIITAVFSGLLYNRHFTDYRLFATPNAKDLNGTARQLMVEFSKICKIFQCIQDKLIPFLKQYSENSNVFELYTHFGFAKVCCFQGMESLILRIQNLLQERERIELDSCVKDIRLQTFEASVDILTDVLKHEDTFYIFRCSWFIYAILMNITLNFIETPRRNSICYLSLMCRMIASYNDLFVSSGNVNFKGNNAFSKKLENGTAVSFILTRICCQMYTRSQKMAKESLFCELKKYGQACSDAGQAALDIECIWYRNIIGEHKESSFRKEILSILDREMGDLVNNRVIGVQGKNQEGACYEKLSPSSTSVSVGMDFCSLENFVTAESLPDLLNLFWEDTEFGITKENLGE
# ASSAY PROCEDURE: PBM E-score (8-mer binding enrichment) (E-score (-0.5 to 0.5)); higher = stronger / more preferred TF binding
# PARTICULARS: protein concentration: 100 nM; construct: GST-full length
The full ranking holds about 33,000 sequences; the median of “E-score (-0.5 to 0.5)” is about -0.016, and the highest 2% start at about 0.3. Many of the other results were omitted from the sample, so the highest values are more common in it than they were.
Output spec: single numeric token, no unit.

CAGGTCGG    -0.119
ATCGGAAA    0.344
CCTAATGC    -0.233
CAGAAGGA    -0.224
GCATTAAA    0.149
ATCGGAGA    0.216

Inquiry: Answer with the recorded PBM E-score for the sequence listed here: TTATTAAA
Reply text: 0.233

Inquiry: Answer with the recorded PBM E-score for the sequence listed here: CGTTGTTC
Reply text: -0.00041

Inquiry: Answer with the recorded PBM E-score for the sequence listed here: GTACTATA
Reply text: 0.176

Inquiry: Answer with the recorded PBM E-score for the sequence listed here: CGGCCGCC
Reply text: 0.209

Inquiry: Answer with the recorded PBM E-score for the sequence listed here: GCGGCTGA
Reply text: -0.0974

Inquiry: Answer with the recorded PBM E-score for the sequence listed here: ACAAGCGA
Reply text: -0.015

Inquiry: Answer with the recorded PBM E-score for the sequence listed here: CGGCCGGA
Reply text: 0.402

Inquiry: Answer with the recorded PBM E-score for the sequence listed here: GTCTCGCA
Reply text: -0.0807
